// data source = patent US20200102387A1

target: T1, human SIRPβ-Fc (human); test: BLI Octet, antigen-Fc on biosensor;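 note: antigen captured on the biosensor tip and then immersed in solutions of the test antibodies, which act as the analyte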
T1 construct: a signal peptide may be part of the entry
# koff per entry
Numeric answer only, unit s⁻¹ assumed.

SIRPAB-10 (antibody, human IgG1, kappa, V domains shown) VH: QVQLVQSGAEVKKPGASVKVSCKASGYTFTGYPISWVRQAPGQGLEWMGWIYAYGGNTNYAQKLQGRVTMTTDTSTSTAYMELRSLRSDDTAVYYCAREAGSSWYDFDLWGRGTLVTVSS VL: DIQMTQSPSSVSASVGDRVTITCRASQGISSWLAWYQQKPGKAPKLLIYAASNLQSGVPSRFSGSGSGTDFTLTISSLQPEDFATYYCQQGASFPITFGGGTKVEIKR ... 0.000477

Memo: SIRPAB-7 (antibody, human IgG1, kappa, V domains shown) VH: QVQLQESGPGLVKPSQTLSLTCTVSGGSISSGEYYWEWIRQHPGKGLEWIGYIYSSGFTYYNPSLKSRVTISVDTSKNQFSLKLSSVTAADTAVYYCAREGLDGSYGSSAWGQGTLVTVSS VL: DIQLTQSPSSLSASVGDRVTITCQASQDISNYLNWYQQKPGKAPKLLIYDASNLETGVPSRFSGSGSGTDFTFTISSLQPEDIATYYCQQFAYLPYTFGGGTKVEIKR , reported koff: 0.00391

Memo: SIRPAB-9 (antibody, human IgG1, kappa, V domains shown) VH: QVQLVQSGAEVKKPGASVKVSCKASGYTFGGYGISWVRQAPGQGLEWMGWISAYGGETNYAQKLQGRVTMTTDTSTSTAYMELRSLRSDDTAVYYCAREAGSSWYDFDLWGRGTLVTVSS VL: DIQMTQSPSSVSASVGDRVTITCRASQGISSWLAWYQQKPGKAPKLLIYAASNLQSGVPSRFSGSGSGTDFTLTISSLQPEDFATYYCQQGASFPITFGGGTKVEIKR , reported koff: 0.00284

Memo: SIRPAB-13 (antibody, human IgG1, kappa, V domains shown) VH: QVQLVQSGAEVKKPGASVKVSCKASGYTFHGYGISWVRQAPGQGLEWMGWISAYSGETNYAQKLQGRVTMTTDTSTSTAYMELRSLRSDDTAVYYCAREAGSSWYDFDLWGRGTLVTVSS VL: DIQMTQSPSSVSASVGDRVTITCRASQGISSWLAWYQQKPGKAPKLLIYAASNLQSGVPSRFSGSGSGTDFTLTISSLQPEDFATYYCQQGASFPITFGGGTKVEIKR , reported koff: 0.00544
